Measured values drawn from patent US20240400986A1 for this set.

What Number of Gigasomes Produced was measured for each of the following?
# Test system: neuronal cell line derived from human neuroblastoma
# ASSAY INFO: Small molecule compound screen of gigasome production in neuronal monocultures
# MEASUREMENT CONTEXT: neuronal cells, dose 10000 nM, 24 hours

[[record]]
molecule = "CN[C@H](CC(=O)O)C(=O)O [NMDA, reference compound]"
measure = "Number of Gigasomes Produced"
recorded_measurement = "15-20"

[[record]]
molecule = "CCC(C)(C)C(=O)O[C@H]1C[C@@H](C)C=C2C=C[C@H](C)[C@H](CC[C@@H]3C[C@@H](O)CC(=O)O3)[C@H]21"
measure = "Number of Gigasomes Produced"
recorded_measurement = "45-55"

[[record]]
molecule = "CC1=NS(=O)(=O)c2cc(Cl)ccc2N1 [Diazoxide]"
measure = "Number of Gigasomes Produced"
recorded_measurement = "35-45"


Query molecule follows.
Entry under review: CO/C1=C\C(C)=C\[C@@H](C)[C@@H](O)[C@@H](C)C/C(C)=C/C=C/[C@H](OC)[C@@H]([C@@H](C)[C@@H](O)[C@H](C)[C@@]2(O)C[C@@H](O)[C@H](C)[C@@H](C(C)C)O2)OC1=O [Bafilomycin A1, reference compound] . Reported Number of Gigasomes Produced?
>115

---

# Test system: neuronal cell line derived from human neuroblastoma
# ASSAY INFO: Small molecule compound screen of gigasome production in neuronal monocultures
# MEASUREMENT CONTEXT: neuronal cells, dose 1000 nM, 24 hours
Please go through the items and note down their Fold Change of Gigasomes Produced vs. DMSO.

[[record]]
compound = "N#C/C(=C\\c1cn(-c2ccccc2)c2ccccc12)C(=O)O [UK-5099, reference compound]"
study_system = "neuronal cell line derived from human neuroblastoma"
recorded_measurement = "0.5-0.75"

[[record]]
compound = "CN[C@H](CC(=O)O)C(=O)O [NMDA, reference compound]"
study_system = "neuronal cell line derived from human neuroblastoma"
recorded_measurement = "0.5-0.75"

[[record]]
compound = "COC(=O)C1=C(C)NC(C)=C([N+](=O)[O-])C1c1ccccc1C(F)(F)F (stereo not shown)"
study_system = "neuronal cell line derived from human neuroblastoma"
recorded_measurement = "1.25-1.5"


Please go through the list and note Fold Change of Gigasomes Produced vs. DMSO for each compound.
1. COC(=O)c1ccccc1NC(=O)c1ccc(F)cc1 [EXO1, reference compound]
2. CC1=C(O)C(=O)C=C2C1=CC=C1[C@@]2(C)CC[C@@]2(C)[C@@H]3C[C@](C)(C(=O)O)CC[C@]3(C)CC[C@]12C [Tripterin, reference compound]
3. CC(/C=C/C(=O)NO)=C\[C@@H](C)C(=O)c1ccc(N(C)C)cc1
4. CO/C1=C\C(C)=C\[C@@H](C)[C@@H](O)[C@@H](C)C/C(C)=C/C=C/[C@H](OC)[C@@H]([C@@H](C)[C@@H](O)[C@H](C)[C@@]2(O)C[C@@H](O)[C@H](C)[C@@H](C(C)C)O2)OC1=O [Bafilomycin A1, reference compound]

0.25-0.5
2.0-3.0
1.75-2.0
2.0-3.0

---

# System: cardiomyocytic cell line derived from human ventricular heart tissue
# ASSAY INFO: Cell viability in cardiomyocyte compound screen (CellTiter-Glo)
# Type: cell-based
# MEASUREMENT CONTEXT: human, 24 h, 100 nM
MEASURE: Viability (%)
Numbers only, in %.

[[record]]
compound = "COc1cc(O)c2c(c1)oc(=O)c1c3cc(O)c(O)cc3oc21 [Wedelolactone, reference compound]"
unit_string = "%"
recorded_measurement = 100.0


We next turn to a different compound, shown below.
What does the data say about its Viability? Entry: O=c1ncn2nc(Sc3ccc(F)cc3F)ccc2c1-c1c(Cl)cccc1Cl [Neflamapimod]
100.0
